Target entity: GlcNAc(a1-4)Gal(b1-4)GlcNAc
Experiment summary: glycan array binding signal (z-score within array); higher = stronger binding
Run conditions: glycan notation: IUPAC condensed, linker removed
The sample as a whole holds a higher share of the strongest signals than the screen did.
glycan array binding signal (z-score) overview

{"Binder": "PEB1 (Campylobacter jejuni), Q0P9X8 (protein) MVFRKSLLKLAVFALGACVAFSNANAAEGKLESIKSKGQLIVGVKNDVPHYALLDQATGEIKGFEVDVAKLLAKSILGDDKKIKLVAVNAKTRGPLLDNGSVDAVIATFTITPERKRIYNFSEPYYQDAIGLLVLKEKKYKSLADMKGANIGVAQAATTKKAIGEAAKKIGIDVKFSEFPDYPSIKAALDAKRVDAFSVDKSILLGYVDDKSEILPDSFEPQSYGIVTKKDDPAFAKYVDDFVKEHKNEIDALAKKWGL", "glycan array binding signal (z-score)": 0.303}
{"Binder": "PfulAvr4 2 (Pseudocercospora fuligena) (protein) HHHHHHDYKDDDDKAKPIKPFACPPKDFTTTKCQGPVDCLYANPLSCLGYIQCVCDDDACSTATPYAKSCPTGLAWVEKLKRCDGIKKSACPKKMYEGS", "glycan array binding signal (z-score)": -0.432}

Data request, read-out glycan array binding signal (z-score), for LF82 (Escherichia coli) (protein) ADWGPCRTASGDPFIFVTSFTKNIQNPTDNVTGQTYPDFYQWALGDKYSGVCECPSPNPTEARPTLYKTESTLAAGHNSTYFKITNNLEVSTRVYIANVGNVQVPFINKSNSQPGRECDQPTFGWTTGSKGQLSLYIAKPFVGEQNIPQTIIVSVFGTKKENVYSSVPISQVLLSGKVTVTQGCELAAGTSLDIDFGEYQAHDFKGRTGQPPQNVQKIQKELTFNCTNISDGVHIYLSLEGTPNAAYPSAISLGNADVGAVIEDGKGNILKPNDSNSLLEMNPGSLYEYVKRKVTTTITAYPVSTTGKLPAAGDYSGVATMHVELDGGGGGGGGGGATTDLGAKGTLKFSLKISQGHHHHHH
2.49

Data provenance is the supplement of paper PMC8728848.
